- study system: T1, human serum albumin (human, UniProt P02768 25-609)
- T1 construct: Bought protein, immobilized on a CM5 chip by amine coupling; also called Human SA
- test method notes: SPR (Biacore 8K), albumin immobilized on CM5 chip, 25 C, 1:1 kinetic fit
assay metric: pKd
Interpret pKd as the negative base-10 log of the concentration measured in mol/L.

INSERT INTO measurements (binder, measured_number) VALUES
  ('RLN Analog 9 (other, Single-chain fusion: RLN2 B chain (desB1) - L2 - RLN2 A chain - (G4Q)5 L1 - VHH (C-terminal)) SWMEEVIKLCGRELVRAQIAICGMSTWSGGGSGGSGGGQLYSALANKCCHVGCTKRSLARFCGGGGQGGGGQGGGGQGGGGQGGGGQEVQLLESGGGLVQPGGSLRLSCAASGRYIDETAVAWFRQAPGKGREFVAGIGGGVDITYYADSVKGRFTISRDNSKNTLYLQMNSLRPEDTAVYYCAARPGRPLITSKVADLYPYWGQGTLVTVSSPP', 9.72);

Alright, here's another binder for you.
Request: Please give the measured pKd for this binder: RLN Analog 14 (other, Single-chain fusion: VHH - (PGPQ)8 L1 - RLN2 A chain (desA1-4) - L2 - RLN2 B chain (desB1)) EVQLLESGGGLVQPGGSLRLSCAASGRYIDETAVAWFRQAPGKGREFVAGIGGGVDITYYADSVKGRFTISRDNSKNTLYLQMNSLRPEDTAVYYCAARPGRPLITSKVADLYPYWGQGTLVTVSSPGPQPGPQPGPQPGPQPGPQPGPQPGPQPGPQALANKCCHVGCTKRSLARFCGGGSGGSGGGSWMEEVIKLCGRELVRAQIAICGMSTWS
Result: 9.80

The measured values listed here are drawn from patent US20260125446A1.
